Provenance of the data: PubChem BioAssay

- Assay protocol: A549 cell viability effects, profiling panel, calcein-AM fluorescence, 48 h, basal (AID 1162); further: test concentration not given here
- Setup conditions: higher = more signal
Answer False if z-score is under -0.2, and True if it is -0.2 or more.

Some solved cases for reference:
Q: Reported z-score reaches at least -0.2 for CC(C)[C@H](NC(=O)OC(C)(C)C)[C@@H](O)CC(=O)OC(C)(C)C ?
A: True

Q: Reported z-score reaches at least -0.2 for CC(C)CON=C1C[C@@H](O)[C@@H](O)[C@@H]2[C@@H]3C(=O)N([C@@H](C)c4ccccc4)C(=O)[C@@H]3CC[C@H]12 ?
A: True

Q: Reported z-score reaches at least -0.2 for O=C1[C@H]2[C@H]3[C@H](O)[C@H](O)CC(=NO[C@@H]4O[C@H](CO)[C@@H](O)[C@H](O)[C@H]4O)[C@@H]3CC[C@H]2C(=O)N1c1ccc(F)cc1F ?
A: False

Q: Reported z-score reaches at least -0.2 for CC(=O)OC[C@H]1O[C@@H](ON=C(C)CCN2CCc3nc(-c4ccccc4)c(-c4ccccc4)cc3C2)[C@H](OC(C)=O)[C@@H](OC(C)=O)[C@@H]1OC(C)=O ?
A: False

Q: Reported z-score reaches at least -0.2 for COCCCNC(=O)[C@]1(CCC(=O)OC(C)(C)C)N=C(c2ccc(OCCCO)cc2)O[C@@H]1c1ccccc1N=[N+]=[N-] ?
A: False

Others:
Q: Reported z-score reaches at least -0.2 for O=C(CS)NCCCCCNC(=O)[C@@H]1C[C@@H]2C(=O)N[C@@H](Cc3ccccc3)C(=O)N2[C@@H]1c1ccc(O)cc1 ?
A: True

Q: Reported z-score reaches at least -0.2 for O=C1CCCC=C1C(O)CCOCc1ccccc1 (configuration not stated) ?
A: False

====

Please respond with reported z-score for every item in the list.
- Assay protocol: E. coli acrAB mutant growth effects, primary screen, E. coli filamentation inducers, strain DRC39, OD650, 48 h (AID 1179);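 further: screen aims at cell division blockers that make cells filament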
- Setup conditions: E. coli DRC39 delta-acrAB growth, higher = more signal, called active from +8 up or from −8 down
One number for each entry.

Answered examples (2):
Q: // returns reported z-score for input COC(=O)[C@H](C)NC(=O)CCC1CC(OC(=O)NCCc2ccc(F)cc2)CC2(CCCC(COC(=O)NCC(c3ccccc3)c3ccccc3)O2)O1 (stereo partly drawn)
A: 0.706

Q: // returns reported z-score for input CCOC(=O)C[C@H]1[C@H](OC(=O)c2ccc(C(=O)c3ccccc3)cc2)[C@@H](NC(=O)c2ccc(-c3ccccc3)cc2)c2cc(OCCCO)ccc2N1C(=O)c1ccc2ccccc2n1
A: 1.23

Please examine the following record next.
Q: // returns reported z-score for input C=C(/C(=C/C[C@@H](OC(=O)c1ccncc1)c1ccc(OCCO)cc1)c1cnc2ccccc2c1)C(C)C
A: 0.432

====

Please respond with reported composite z-score for every item in the list.
- Tested on: Follistatin (Homo sapiens) (UniProt P19883)
- Sequence (P19883 whole entry, looked up): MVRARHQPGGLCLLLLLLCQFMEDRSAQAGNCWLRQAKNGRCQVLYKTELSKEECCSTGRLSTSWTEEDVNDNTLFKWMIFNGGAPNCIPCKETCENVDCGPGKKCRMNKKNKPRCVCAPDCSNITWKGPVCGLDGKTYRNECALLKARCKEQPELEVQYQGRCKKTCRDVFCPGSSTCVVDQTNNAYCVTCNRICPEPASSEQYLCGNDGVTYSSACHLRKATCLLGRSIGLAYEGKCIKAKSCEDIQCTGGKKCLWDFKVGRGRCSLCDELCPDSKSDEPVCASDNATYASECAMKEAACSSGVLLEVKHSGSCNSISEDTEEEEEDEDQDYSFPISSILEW
- Assay protocol: follistatin binders on small-molecule microarrays, primary screen, biochemical, small-molecule microarray, 635/667 nm fluorescence (AID 1132)
- Setup conditions: FST binding, 635 nm fluorescence, higher = more signal
Answers are plain numbers.

Answered examples (5):
Q: Form field - read-out: composite z-score; system: Follistatin (Homo sapiens) (UniProt P19883); submitted item: COCC1=C2[C@@H](CCc3ccccc3)OB(O)C[C@@H]2n2c(=O)n(-c3ccccc3)c(=O)n2C1
A: 0.133

Q: Form field - read-out: composite z-score; system: Follistatin (Homo sapiens) (UniProt P19883); submitted item: CC(C)[Si]1(C(C)C)O[C@@H](c2ccccc2)c2cc(C3CC3)nc(-c3ccccc3)c21
A: -0.165

Q: Form field - read-out: composite z-score; system: Follistatin (Homo sapiens) (UniProt P19883); submitted item: CC(C)NC(=O)[C@@]1(c2ccc([N+](=O)[O-])cc2)CC(=O)N(CC23CC4CC(CC(C4)C2)C3)[C@@H]1c1ccc(CO)cc1I
A: 1.06

Q: Form field - read-out: composite z-score; system: Follistatin (Homo sapiens) (UniProt P19883); submitted item: O[C@@H](Cc1ccccc1)[C@H]1C2C=CCCC(c3ccccc3)=C2CN1Cc1cccc(Cl)c1 (stereo not given in full)
A: 0.995

Q: Form field - read-out: composite z-score; system: Follistatin (Homo sapiens) (UniProt P19883); submitted item: CC1(C)OCC(C(O)C2=CCCCC2=O)CO1 (stereo not given)
A: 0.97

Give measured composite z-score for every item shown.
1. CCOC(=O)NN=C1C[C@@H](O)[C@@H](O)[C@@H]2[C@@H]3C(=O)N(C4CCCCC4)C(=O)[C@@H]3CC[C@H]12
2. COCCCNC(=O)[C@@]1(C)c2ccccc2C(=O)N(Cc2ccc(OC(F)(F)F)cc2)[C@H]1c1ccc(CO)cc1
3. N#Cc1ccc(NN2C(C(O)c3cccc4ccccc34)C=CC3C(=O)N(c4ccccc4)C(=O)C32)cc1 (stereo not given)
4. C#CCCCON=C1C[C@@H](O)[C@@H](O)[C@@H]2[C@@H]3C(=O)N(CCC(=O)OCC)C(=O)[C@@H]3CC[C@@H]12
5. CC(CCC(=O)OC[C@H]1O[C@H](C#Cc2ccccc2)C=C[C@@H]1Oc1ccc(C)cc1)=NOC[C@@H](O)COCc1ccco1

A:
[0.061, -0.0328, 1.23, -1.11, -2.24]
